- STUDY_SYSTEM: T1, DGI-2 polypeptide (UniProt Q15004 1-111, limits assumed)
- T1 construct: Soluble recombinant protein coated at 500 ng/well; vector tag of pIVEX2.3-MCS not described for this construct; also called KIAA0101
- T1 sequence (looked up): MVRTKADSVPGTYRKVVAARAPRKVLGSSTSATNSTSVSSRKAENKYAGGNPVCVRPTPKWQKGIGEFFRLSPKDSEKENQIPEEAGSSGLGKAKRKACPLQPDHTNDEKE
- PROTOCOL_TEXT: phage ELISA
Assignment: determine reported DGI-2/LDH for the given binders.
Field format: number, assumed ratio, no unit text.

INPUT: Look up and report measured DGI-2/LDH for this entry: MGVVLECEGGWSIPGQTCYFAAAGAPVPYPDPLEPRP [DGI-2-20R-3-C7]
OUTPUT: 5.1

INPUT: Look up and report measured DGI-2/LDH for this entry: TPVAISIPAGVCSTSVCGRDAAAGAPVPYPDPLEPRP [DGI-2-20F-PP-C11]
OUTPUT: 2.6

INPUT: Look up and report measured DGI-2/LDH for this entry: VCSGGKGTWLEIPDRVRSSTAAAGAPVPYPDPLEPRP [DGI-2-20F-PP-A22]
OUTPUT: 3.1

INPUT: Look up and report measured DGI-2/LDH for this entry: EVFVSVWVFRFRVMPVTPGGTAAAGAPVPYPDPLEPRP [DGI-2-20F-PP-E6]
OUTPUT: 2.6

INPUT: Look up and report measured DGI-2/LDH for this entry: VGHLLSRCAHHSPGMGASPYGAAAGAPVPYPDPLEPRP [DGI-2-20F-PP-B11]
OUTPUT: 2.7

INPUT: Look up and report measured DGI-2/LDH for this entry: GWGCSVPGILCVGGHRQGGGAAAGAPVPYPDPLEPRP [DGI-2-20R-3-B11]
OUTPUT: 5.7
